# Lookup of reported IC50 keyed by entry
- target-system: trypsin, type IX from porcine pancreas (Sus scrofa)
- Construct: purchased Sigma, St. Louis Mo; host or cells: porcine pancreas
- Sequence (P00761 9-231): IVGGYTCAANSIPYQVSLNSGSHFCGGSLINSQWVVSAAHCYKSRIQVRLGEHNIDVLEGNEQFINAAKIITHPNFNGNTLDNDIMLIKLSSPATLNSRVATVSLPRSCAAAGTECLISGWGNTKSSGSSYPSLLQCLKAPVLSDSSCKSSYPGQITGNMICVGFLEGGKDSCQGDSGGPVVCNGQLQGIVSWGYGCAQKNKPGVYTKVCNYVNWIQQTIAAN
- measurement-protocol: Trypsin Assay (L-BAPNA, 405 nm)
- Format: biochemical
- assay-setup: read-out: Trpysin II IC50

Answered examples (2):
{"compound": "O=C(Cc1c(F)ccc(NS(=O)(=O)Cc2ccccc2)c1F)NCCCn1ccnc1 [Example 12]", "value-reported": "> 30 µM"}
{"compound": "N=C(N)c1ccc(CNC(=O)Cc2c(-c3ccccc3)ccc(NCCc3ccccc3)c2O)cc1 [Example 19]", "value-reported": "0.2 µM"}

Give its IC50 value. Item: N=C(N)c1ccc(CNC(=O)Cc2c(-c3ccccc3)ccc(NCCc3ccccc3)c2F)cc1 [Example 17]
0.2 µM

---

- target-system: recombinant soluble tissue factor and recombinant human factor VIIa (TF-VIIa) (Homo sapiens, UniProt P08709)
- Construct: purchased American Diagnostica, Greenwich Conn; soluble TF made in house in E. coli
- Sequence (P08709 213-466 limits assumed): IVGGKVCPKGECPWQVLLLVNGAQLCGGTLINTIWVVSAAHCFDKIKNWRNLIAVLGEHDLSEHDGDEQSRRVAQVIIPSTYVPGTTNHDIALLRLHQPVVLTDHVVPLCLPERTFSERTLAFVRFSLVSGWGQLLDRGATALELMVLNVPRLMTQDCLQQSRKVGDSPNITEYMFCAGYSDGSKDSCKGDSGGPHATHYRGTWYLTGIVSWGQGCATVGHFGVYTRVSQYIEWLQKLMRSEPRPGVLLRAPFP
- Sequence (P08709 61-212 limits assumed): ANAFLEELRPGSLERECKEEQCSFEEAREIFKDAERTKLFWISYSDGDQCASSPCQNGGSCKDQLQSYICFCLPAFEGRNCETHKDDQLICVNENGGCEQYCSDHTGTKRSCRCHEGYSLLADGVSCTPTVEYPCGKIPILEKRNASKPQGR
- Sequence (P13726 33-251 partner limits assumed): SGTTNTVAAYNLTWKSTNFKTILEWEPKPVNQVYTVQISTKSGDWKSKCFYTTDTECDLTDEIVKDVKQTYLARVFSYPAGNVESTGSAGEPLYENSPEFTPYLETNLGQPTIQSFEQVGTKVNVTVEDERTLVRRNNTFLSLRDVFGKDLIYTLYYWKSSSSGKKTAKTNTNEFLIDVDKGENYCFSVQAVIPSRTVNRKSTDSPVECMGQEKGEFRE
- measurement-protocol: TF-VIIa Assay (chromogenic substrate hydrolysis, 405 nm)
- Assay type: biochemical
- assay-setup: read-out: IF-VIIA IC50
# Lookup of reported pIC50 keyed by entry
API: returns pIC50 as number; meaning -log10 of concentration in mol/L.

Answered examples (2):
{"smiles-text": "COc1c(NC(C)C)ccc(-c2ccccc2)c1CC(=O)NCc1ccc(C(=N)N)cc1", "value-reported": 4.83}
{"smiles-text": "N=C(N)c1ccc(CNC(=O)Cc2c(F)ccc(NCCc3ccccc3)c2F)cc1", "value-reported": 4.79}

Give its pIC50 value. Item: N=C(N)c1ccc(CNC(=O)Cc2c(-c3ccccc3)ccc(NCCc3ccccc3)c2F)cc1
5.40

---

- target-system: recombinant soluble tissue factor and recombinant human factor VIIa (TF-VIIa) (Homo sapiens, UniProt P08709)
- Construct: soluble TF made in house in E. coli
- measurement-protocol: TF-VIIa Assay (chromogenic substrate hydrolysis, 405 nm)
- assay-setup: read-out: IF-VIIA IC50
recorded-metric: pIC50
API: returns pIC50 as number; meaning -log10 of concentration in mol/L.

Answered examples (2):
{"smiles-text": "N=C(N)c1ccc(CNC(=O)Cc2c(-c3ccccc3)ccc(NCCc3ccccc3)c2O)cc1", "pIC50": 5.57}
{"smiles-text": "COc1c(NCCc2ccccc2)ccc(-c2ccccc2)c1CC(=O)NCc1ccc(C(=N)N)cc1", "pIC50": 4.60}

In the following, a different compound is considered.
Give its pIC50 value. Item: N=C(N)c1ccc(CNC(=O)Cc2c(-c3cccc(N)c3)ccc(NCc3ccccc3)c2F)cc1
6.17

---

- target-system: human factor Xa (Homo sapiens)
- Sequence (P00742 235-488 limits assumed): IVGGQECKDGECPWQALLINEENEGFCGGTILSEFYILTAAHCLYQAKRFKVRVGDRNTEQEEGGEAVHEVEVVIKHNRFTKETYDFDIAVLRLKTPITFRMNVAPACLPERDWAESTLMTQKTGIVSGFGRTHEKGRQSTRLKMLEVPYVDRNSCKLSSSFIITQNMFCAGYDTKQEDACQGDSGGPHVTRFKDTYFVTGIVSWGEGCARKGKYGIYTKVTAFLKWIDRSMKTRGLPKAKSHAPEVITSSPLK
- Sequence (P00742 41-179 limits assumed): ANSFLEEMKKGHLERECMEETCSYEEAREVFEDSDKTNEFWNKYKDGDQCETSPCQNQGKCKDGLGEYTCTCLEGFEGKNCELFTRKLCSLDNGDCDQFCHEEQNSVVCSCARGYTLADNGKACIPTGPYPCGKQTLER
pIC50: −log10 of the molar value.
# Lookup of reported pIC50 keyed by entry

Give its pIC50 value. Item: O=C(NCC1CCNCC1)c1cc(NS(=O)(=O)Cc2ccccc2)ccc1Sc1ccccc1
< 4.52

Give its pIC50 value. Item: COc1c(NCCc2ccccc2)ccc(-c2ccccc2)c1CC(=O)NCc1ccc(C(=N)N)cc1
< 4.52

Give its pIC50 value. Item: N=C(N)NCCCCNC(=O)c1cc(NS(=O)(=O)Cc2ccccc2)ccc1Sc1ccccc1
< 4.00

Give its pIC50 value. Item: CN(C)c1ccc(CNC(=O)Cc2c(F)ccc(NS(=O)(=O)Cc3ccccc3)c2F)cc1
< 4.52
